# assayComment: Inhibition of yeast recombinant FTase
# Parameters: species or system Saccharomyces cerevisiae
# conditionContext: read-out: IC50
observationType: log10 IC50 (log10 of the value in µM)
All values: log10 IC50 [µM].

Record CC(=O)OCc1sc(SC(C)C)c(C#N)c1-c1ccc(Cl)cc1 . Reported log10 IC50: 1.65

Record CC(C)Sc1oc(C(=O)O)c(-c2ccc(Cl)cc2)c1C#N . Reported log10 IC50: 0.30

Record CC(C)Sc1c(C#N)c(-c2ccc(Cl)cc2)c(C(=O)O)n1C . Reported log10 IC50: 1.67

Record N#Cc1c(SC2CCCCC2)sc(C(=O)O)c1-c1ccc(Cl)cc1 . Reported log10 IC50: 0.16

Record CC(C)Sc1sc(C(=O)O)c(-c2ccc(Cl)cc2)c1C#N . Reported log10 IC50: -0.96

Record CCCCSc1sc(C(=O)O)c(-c2ccc(Cl)cc2)c1C#N . Reported log10 IC50: 0.09

Record N#Cc1c(N2CCOCC2)sc(C(=O)O)c1-c1ccc(Cl)cc1 . Reported log10 IC50: 1.45

Record CC(C)CSc1sc(C(=O)O)c(-c2ccc(Cl)cc2)c1C#N . Reported log10 IC50: -0.05

Record COC(=O)[C@@H](CCSC)NC(=O)c1sc(SC(C)C)c(C#N)c1-c1ccc(Cl)cc1 . Reported log10 IC50: 0.76

Record CC(C)Sc1nc(-c2ccc(Cl)cc2)c(C(=O)O)s1 . Reported log10 IC50: 1.71

Record CC(=O)c1sc(SC(C)C)c(C#N)c1-c1ccc(Cl)cc1 . Reported log10 IC50: -0.10

Record CSc1sc(C(=O)NC2CC2)c(-c2ccc(Cl)cc2)c1C#N . Reported log10 IC50: 1.34

Record CSCC[C@@H](NC(=O)c1sc(SC(C)C)c(C#N)c1-c1ccc(Cl)cc1)C(=O)O . Reported log10 IC50: -2.12

Record CCOC(=O)c1sc(SC(C)C)c(C#N)c1-c1ccc(Cl)cc1 . Reported log10 IC50: 0.58

Record CCC(C)Sc1sc(C(=O)O)c(-c2ccc(Cl)cc2)c1C#N (stereo not drawn) . Reported log10 IC50: -0.46

Record CSc1sc(C(=O)O)c(-c2ccc(Cl)cc2)c1C#N . Reported log10 IC50: -0.21

Record CC(C)Sc1sc(C(N)=O)c(-c2ccc(Cl)cc2)c1C#N . Reported log10 IC50: 0.04

Record CCSc1sc(C(=O)O)c(-c2ccc(Cl)cc2)c1C#N . Reported log10 IC50: -0.49

###

# assayComment: Inhibition of yeast recombinant FTase by non-competitive Lineweaver-Burke plot using farnesyl pyrophosphate substrate
# Design: species or system Saccharomyces cerevisiae
observationType: Ki (nM)
Write the value in nM as a bare number.

Record CC(C)Sc1sc(C(=O)O)c(-c2ccc(Cl)cc2)c1C#N . Reported Ki: 110
